Can you tell me Particle size (nm) for the items I'm about to list?
- TEST METHOD NOTES: Particle size and PDI of lipid nanoparticles (Nano-ZSZEN3600, Malvern)
- Assay type: physicochemical
- PARTICULARS: LNPs, Formulation method 2 (amino lipid:DSPC:cholesterol:PEG2000-DMG 50:10:38.5:1.5), Fluc mRNA
- Description: […] Characterization of particle size: the particle size and PDI of the prepared lipid nanoparticles were determined by Nano-ZSZEN3600 (Malvern). […]
Expressed in nm, but write only the number.

Find the measured Particle size (nm) of CCCCCCCCCCCCCCCSc1nc(NCCCCCCCCCCC)nc(NCCN2CCN(C)CC2)n1 and report it.
95

Specify reported Particle size (nm) for the compound shown: CCCCCCCCCCCCSc1nc(NCCCN2CCOCC2)nc(SCCCCCCCCCCC)n1
90

Give the reported Particle size (nm) for this compound. CCCCCCCCCCCCCCCCSc1nc(NCCCCCCCC)nc(NCC2CCN(C)CC2)n1
120

Please indicate Particle size (nm) recorded for CCCCCCCCCCCCCCCCSc1nc(NCC2CCN(C)CC2)nc(SCCCCCCCCCC)n1
125

Give Particle size (nm) for the following compound: CCCCCCCCCCCCCCCCCCSc1nc(NCCN2CCCC2)nc(SCCCCCCC)n1
95

Give reported Particle size (nm) value for CCCCCCCCCCCCCCCCSc1nc(NCCCCCCCCC)nc(NCCN2CCCC2)n1
127

Look up Particle size (nm) of CCCCCCCCCCCCCCCCSc1nc(NCCN2CCN(C)CC2)nc(SCCCCCCCCC)n1 and report it.
130

Specify measured Particle size (nm) for CCCCCCCCCCCCCCCCSc1nc(NCCCCCCC)nc(NCCCN2CCN(C)CC2)n1 .
92
